biological target: FimH lectin domain (amino acids 1-158) (Escherichia coli); construct: using a FimH lectin domain (amino acids 1-158) LEctPROFILE kit (provided by GLYcoDiag); purchased GLYcoDiag (Orléans, France); test: biochemical; format: binding, E. coli; settings: relative to reference MeMan, 23
Sequence (P08191 22-179): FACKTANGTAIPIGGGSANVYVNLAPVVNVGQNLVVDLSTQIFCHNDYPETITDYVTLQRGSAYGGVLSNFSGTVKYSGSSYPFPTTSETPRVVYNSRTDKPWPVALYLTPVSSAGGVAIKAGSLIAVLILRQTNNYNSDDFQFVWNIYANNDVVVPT
Quick rule: RIP (relative inhibitory potency) of at least 100 means yes, below that means no.

| compound | group_label |
| --- | --- |
| O=[N+]([O-])c1ccc(O[C@H]2O[C@H](CO)[C@@H](O)[C@H](O)[C@@H]2O)cc1 [Compound 22, para-nitrophenyl α-D-mannopyranoside] | no |
| OC[C@H]1O[C@H](C/C=C/c2ccc3ncccc3c2)[C@@H](O)[C@@H](O)[C@@H]1O [Compound 11] | yes |
| OC[C@H]1O[C@H](C/C=C/c2ccccc2-c2ccncc2)[C@@H](O)[C@@H](O)[C@@H]1O [Compound 20] | yes |
| OC[C@H]1O[C@H](C/C=C/c2ccc(-c3ccccc3)cc2)[C@@H](O)[C@@H](O)[C@@H]1O [Compound 18] | no |
| CCCCCCCO[C@H]1O[C@H](CO)[C@@H](O)[C@H](O)[C@@H]1O [Compound 21, heptyl α-D-mannopyranoside] | yes |

// switching to the query compound
Check if RIP (relative inhibitory potency) >= 100 (inclusive). Item: CO[C@H]1O[C@H](CO)[C@@H](O)[C@H](O)[C@@H]1O [Compound 23, methyl α-D-mannopyranoside] no
